- Target: human Cereblon WT GST-tagged protein (Homo sapiens, UniProt Q96SW2)
- Construct: purchased CISBIO 64BDCRBNPEH
- Sequence (Q96SW2 whole entry): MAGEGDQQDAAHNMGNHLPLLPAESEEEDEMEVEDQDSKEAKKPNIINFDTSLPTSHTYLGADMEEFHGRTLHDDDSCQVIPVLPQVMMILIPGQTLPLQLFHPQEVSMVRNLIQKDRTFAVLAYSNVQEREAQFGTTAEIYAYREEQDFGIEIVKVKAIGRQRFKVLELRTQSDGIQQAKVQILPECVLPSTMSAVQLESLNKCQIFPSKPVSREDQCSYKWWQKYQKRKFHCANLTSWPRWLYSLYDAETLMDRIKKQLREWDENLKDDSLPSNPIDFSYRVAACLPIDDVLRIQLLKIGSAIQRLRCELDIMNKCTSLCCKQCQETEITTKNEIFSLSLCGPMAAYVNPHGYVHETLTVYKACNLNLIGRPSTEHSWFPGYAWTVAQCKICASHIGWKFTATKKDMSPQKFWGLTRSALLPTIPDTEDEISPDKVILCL
- Method notes: CRBN-binding affinity, HTRF (CEREBLON BINDING kit)
- Experimental setup: read-out: Inhibition Rate at 0.5 µM (%)
Test readout: inhibition at 0.5 µM

Below: 2 molecules and their reported inhibition at 0.5 µM.
[[record]]
molecule = "Cc1cscc1C1=CCN(Cc2cccc3c2CN(C2CCC(=O)NC2=O)C3=S)CC1 (centres unmarked)"
result = "53 to 60%"

[[record]]
molecule = "O=C1CCC(N2Cc3c(CN4C5CC4CN(c4cccc(Cl)c4Cl)C5)cccc3C2=S)C(=O)N1 (centres unmarked)"
result = "40 to 53%"


Input: Requested field: inhibition at 0.5 µM. Item: O=C1CCC(N2Cc3c(CN4CCN(c5nc6c(c(N7CCNCC7)n5)SCC6)CC4)cccc3C2=S)C(=O)N1 (centres unmarked)
Output: 60 to 80%

Input: Requested field: inhibition at 0.5 µM. Item: O=C1CCC(N2Cc3c(CN4CCN(c5cnnc(Cl)c5Cl)CC4)cccc3C2=S)C(=O)N1 (centres unmarked)
Output: 60 to 80%

Input: Requested field: inhibition at 0.5 µM. Item: COc1ccc(N2CCN(Cc3cccc4c3CN(C3CCC(=O)NC3=O)C4=S)CC2)cc1 (centres unmarked)
Output: 53 to 60%

Input: Requested field: inhibition at 0.5 µM. Item: O=C1CCC(N2Cc3cc(CN4CC=C(c5cncc(Cl)c5)CC4)ccc3C2=S)C(=O)N1 (centres unmarked)
Output: 60 to 80%

Input: Requested field: inhibition at 0.5 µM. Item: O=C1CCC(N2Cc3cc(CN4CCC(c5cccs5)CC4)ccc3C2=S)C(=O)N1 (centres unmarked)
Output: 40 to 53%

Input: Requested field: inhibition at 0.5 µM. Item: O=C1CCC(N2Cc3cc(CN4CCN(c5c(F)cncc5Cl)CC4)ccc3C2=S)C(=O)N1 (centres unmarked)
Output: 60 to 80%

====

- Target: human Cereblon WT GST-tagged protein (Homo sapiens)
- Construct: purchased CISBIO 64BDCRBNPEH
- Method notes: CRBN-binding affinity, HTRF (CEREBLON BINDING kit)
- Experimental setup: read-out: Inhibition Rate at 2 µM (%)
Test readout: inhibition at 2 µM

Below: 5 compounds and their reported inhibition at 2 µM.
[[record]]
compound = "O=C1CCC(N2Cc3c(CN4CCN(c5ccc(Cl)nc5)CC4)cccc3C2=S)C(=O)N1 (centres unmarked) [GT-08723]"
result = "80 to 100%"

[[record]]
compound = "O=C1CCC(N2Cc3c(CN4CCN(c5cccc(F)c5F)CC4)cccc3C2=S)C(=O)N1 (centres unmarked) [GT-08268]"
result = "60 to 80%"

[[record]]
compound = "O=C1CCC(N2Cc3cc(CN4CCC(c5ccon5)CC4)ccc3C2=S)C(=O)N1 (centres unmarked) [GT-09256]"
result = "80 to 100%"

[[record]]
compound = "CC1(C)CCC(CN2C3CCC2CN(Cc2ccc4c(c2)CN(C2CCC(=O)NC2=O)C4=S)C3)=C(c2ccc(Cl)cc2)C1 (centres unmarked) [GT-08162]"
result = "60 to 80%"

[[record]]
compound = "O=C1CCC(N2Cc3cc(CN4CCC(c5nccc(Cl)c5Cl)CC4)ccc3C2=S)C(=O)N1 (centres unmarked) [GT-08488]"
result = "80 to 100%"


Input: Request body: readout inhibition at 2 µM, system human Cereblon WT GST-tagged protein (Homo sapiens), query O=C1CCC(N2Cc3cc(CN4CCN(c5ncc(Cl)cc5Cl)CC4)ccc3C2=S)C(=O)N1 (centres unmarked) [GT-09226] . Return the value.
Output: 80 to 100%

Input: Request body: readout inhibition at 2 µM, system human Cereblon WT GST-tagged protein (Homo sapiens), query O=C1CCC(N2Cc3c(CN4CCN(c5ccc(Br)cc5)CC4)cccc3C2=S)C(=O)N1 (centres unmarked) [GT-08496] . Return the value.
Output: 80 to 100%

Input: Request body: readout inhibition at 2 µM, system human Cereblon WT GST-tagged protein (Homo sapiens), query O=C1CCC(N2Cc3cc(CN4CC5CCC(C4)N5c4cccc(Cl)c4Cl)ccc3C2=S)C(=O)N1 (centres unmarked) [GT-08479] . Return the value.
Output: 60 to 80%

Origin of the recorded values: patent EP4745135A1
